Measured melting point by item
property.name: melting point

{"compound": "COc1ccc(-c2sccc2C(=O)c2cc(OC)c(OC)c(OC)c2)cc1O", "property.name": "melting point", "result": "151 to 152 °C"}
{"compound": "COc1ccc(-c2sc3cc4c(cc3c2C(=O)c2cc(OC)c(OC)c(OC)c2)OCO4)cc1O", "property.name": "melting point", "result": "156 to 157 °C"}
{"compound": "COc1ccc(-c2oc3cc(OC)ccc3c2Cc2cc(OC)c(OC)c(OC)c2)cc1", "property.name": "melting point", "result": "121 to 122 °C"}
{"compound": "COc1ccc2c(C(=O)c3cc(OC)c(OC)c(OC)c3)c(-c3ccc(OC)c(O)c3)oc2c1", "property.name": "melting point", "result": "68 to 69 °C"}
{"compound": "COc1ccc2c(C(O)c3cc(OC)c(OC)c(OC)c3)c(-c3ccc(OC)c(O)c3)oc2c1 (centres unmarked)", "property.name": "melting point", "result": "68 to 69 °C"}
{"compound": "COc1ccc(-c2oc3cc(OC)ccc3c2C(O)c2cc(OC)c(OC)c(OC)c2)cc1 (centres unmarked)", "property.name": "melting point", "result": "53 to 54 °C"}
{"compound": "COc1ccc2c(C(=O)c3cc(OC)c(OC)c(OC)c3)c(-c3ccc(OC)c(O)c3)sc2c1", "property.name": "melting point", "result": "123 to 125 °C"}
{"compound": "COc1ccc2c(-c3cc(OC)c(OC)c(OC)c3)c(-c3ccc(OC)c(O)c3)[nH]c2c1", "property.name": "melting point", "result": "98 to 99 °C"}

---

# Tested on: tubulin
# Construct: other: tubulin 10 μM; extent of assembly measured; asterisk: rate but not ex; tubulin 1.0 μM; [3H]colchicine; [3H]colchicin
# experiment.notes: Inhibition of [3H]colchicine binding to tubulin
# measurement.parameters: 5 μM inhibitor; tubulin 1.0 μM; [3H]colchicine 5.0 μM
Everything with Inhibition of colchicine binding (% inhibition), 5 μM inhibitor lower than 60% is NO; everything else, including exactly 60%, is YES.

{"molecule": "COc1ccc(-c2sc3cc4c(cc3c2C(=O)c2cc(OC)c(OC)c(OC)c2)OCO4)cc1O [BLF-53-3]", "class.name": "NO"}
{"molecule": "COc1ccc2c(C(O)c3ccc(OC)c(O)c3)c(-c3cc(OC)c(OC)c(OC)c3)sc2c1 (centres unmarked) [BLF-34-3]", "class.name": "NO"}
{"molecule": "COc1ccc(/C=C\\c2cc(OC)c(OC)c(OC)c2)cc1O [(A), Combretastatin A4, reference compound]", "class.name": "YES"}
{"molecule": "COc1ccc(C2=C(c3cc(OC)c(OC)c(OC)c3)CCS2)cc1OC(C)=O [GPF-60-1]", "class.name": "YES"}
{"molecule": "COc1ccc(-c2sccc2C(=O)c2cc(OC)c(OC)c(OC)c2)cc1O [BLF-89-3]", "class.name": "YES"}
